assayText: Hansen solubility parameters and solubility distance Ra of solvents
Assay type: physicochemical
Design: key: solubility distance Ra in MPa^1/2
conditions: solubility distance calculated from formula 1
measuredProperty: Ra
Please respond with just the number, no unit label.

CN1CCCC1=O; 8.2
CC#N; 7.8
O=C1CCCO1; 6.1
N#Cc1ccccc1; 4.6
Cn1ccnc1; 8.8
COCC(C)OCC(C)OC (stereo not shown); 7.1

Let us examine a further case.
Would you kindly share the measured Ra for `CCCCC(C)=O` ? 6.3

---

assayText: Hansen solubility parameters and solubility distance Ra of solvents
Type: physicochemical
conditions: solubility distance calculated from formula 1
Short version: Ra at least 7 is 1.0, less is 0.0.

COC(=O)c1ccccc1 [Methyl benzoate]; 0.0
C1COCCN1 [Morpholine]; 1.0
O=C1CCCCC1 [Cyclohexanone]; 0.0

Determine whether this molecule has Ra no lower than 7: COC(=O)CCC(=O)OC [Dimethyl succinate] 0.0

Determine whether this molecule has Ra no lower than 7: C[S+](C)[O-] [DMSO] 1.0
